- Test system: 786-0 complex spheroids with HUVEC/MSC, growth % test/control
- test.method.notes: Anticancer human tumor 786-0 cell line growth inhibition [AhR]; active = viability on the fitted dose curve at most 10% of control; inactive = the rest;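 note: compound exposure lasted seven days before the read-out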
- condition.summary: second compound 3.16 µM; first compound 3.16 µM
Please reply with one of these outcomes: TRUE for active, FALSE for inactive

molecule	label.value
Nc1ccccc1NC(=O)c1ccc(CNC(=O)OCc2cccnc2)cc1 + Cc1ccccc1N=Nc1ccc(NC(=O)c2ccnn2C)c(C)c1	FALSE
CC1(C)CCC(CN2CCN(c3ccc(C(=O)NS(=O)(=O)c4ccc(NCC5CCOCC5)c([N+](=O)[O-])c4)c(Oc4cnc5[nH]ccc5c4)c3)CC2)=C(c2ccc(Cl)cc2)C1 + Cc1ccccc1N=Nc1ccc(NC(=O)c2ccnn2C)c(C)c1	FALSE
O=C(c1cc(Cc2n[nH]c(=O)c3ccccc23)ccc1F)N1CCN(C(=O)C2CC2)CC1 + CC(CO)NC(=O)c1cc(-c2ccc(Cl)cc2)nn(-c2cnn(C)c2)c1=O	FALSE

Inquiry: Field: outcome | Entry: O=C(c1cc(Cc2n[nH]c(=O)c3ccccc23)ccc1F)N1CCN(C(=O)C2CC2)CC1 + Cc1cncc(-c2nc(NCCc3c[nH]c4ccccc34)c3ncn(C(C)C)c3n2)c1
Reply text: FALSE

Inquiry: Another molecule to check: COc1cccc2c1C(=O)c1c(O)c3c(c(O)c1C2=O)CC(O)(C(=O)CO)CC3OC1CC(N)C(O)C(C)O1 (stereo not given) + Cc1cncc(-c2nc(NCCc3c[nH]c4ccccc34)c3ncn(C(C)C)c3n2)c1
Reply text: TRUE
